Target: human delta-like ligand 3 (DLL3) on SHP77 cells (human) (UniProt Q9NYJ7)
Sequence (Q9NYJ7 27-618, stated change not applied): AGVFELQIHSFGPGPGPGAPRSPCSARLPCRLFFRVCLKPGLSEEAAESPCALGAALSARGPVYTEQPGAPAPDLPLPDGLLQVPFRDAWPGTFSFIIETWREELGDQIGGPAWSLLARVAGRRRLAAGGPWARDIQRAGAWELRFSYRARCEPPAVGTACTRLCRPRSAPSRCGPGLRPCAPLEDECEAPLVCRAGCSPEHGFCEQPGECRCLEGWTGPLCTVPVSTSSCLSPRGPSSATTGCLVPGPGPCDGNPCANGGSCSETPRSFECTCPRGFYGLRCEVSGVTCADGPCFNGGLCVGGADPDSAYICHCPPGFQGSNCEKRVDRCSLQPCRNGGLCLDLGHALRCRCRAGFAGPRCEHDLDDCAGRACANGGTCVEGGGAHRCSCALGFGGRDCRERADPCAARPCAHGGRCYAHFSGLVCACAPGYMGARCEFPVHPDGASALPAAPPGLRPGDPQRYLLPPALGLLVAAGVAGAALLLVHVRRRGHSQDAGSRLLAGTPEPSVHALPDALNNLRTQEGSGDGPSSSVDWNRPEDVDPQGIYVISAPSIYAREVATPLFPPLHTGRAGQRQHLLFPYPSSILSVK
Assay: FACS on SHP77 cells
Quantity Name: MFI at 0.0064 nM (MFI)
Answers are plain numbers, in MFI.

Would you please look over these solved cases?
Binder	MFI at 0.0064 nM / MFI
Hab014VL1VH2-hFc (scFv, part only; not given: VL-VH linker and human IgG1 Fc, V domains shown, not shown: another chain or arm of the molecule; a dimerising Fc or GST; small tags and cut ends) VL: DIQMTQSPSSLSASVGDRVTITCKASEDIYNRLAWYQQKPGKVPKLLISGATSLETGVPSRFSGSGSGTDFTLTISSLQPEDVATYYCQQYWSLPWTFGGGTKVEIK VH: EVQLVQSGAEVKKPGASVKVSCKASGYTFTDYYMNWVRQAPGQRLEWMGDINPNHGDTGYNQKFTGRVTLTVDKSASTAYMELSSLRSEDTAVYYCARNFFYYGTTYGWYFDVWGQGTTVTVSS	94
Hab006VL4VH2-hFc (scFv, part only; not given: scFv linker and human IgG1 Fc, V domains shown, not shown: another chain or arm of the molecule; a dimerising Fc or GST; small tags and cut ends) VL: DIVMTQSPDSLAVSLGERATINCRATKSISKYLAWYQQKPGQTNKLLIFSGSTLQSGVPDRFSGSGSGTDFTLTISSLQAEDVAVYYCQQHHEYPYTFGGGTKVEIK VH: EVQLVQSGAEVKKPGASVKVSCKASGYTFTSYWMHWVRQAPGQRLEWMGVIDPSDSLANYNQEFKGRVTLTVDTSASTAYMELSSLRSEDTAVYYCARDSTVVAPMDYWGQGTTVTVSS	281

Next binder, MFI at 0.0064 nM to be filled in.
Problem: Returns the measured MFI at 0.0064 nM for the input binder. Input: Hab009VL3aVH1-hFc (Fc fusion, part only; not given: Linker and human IgG1 Fc, not shown: a dimerising Fc or GST) scFv, part: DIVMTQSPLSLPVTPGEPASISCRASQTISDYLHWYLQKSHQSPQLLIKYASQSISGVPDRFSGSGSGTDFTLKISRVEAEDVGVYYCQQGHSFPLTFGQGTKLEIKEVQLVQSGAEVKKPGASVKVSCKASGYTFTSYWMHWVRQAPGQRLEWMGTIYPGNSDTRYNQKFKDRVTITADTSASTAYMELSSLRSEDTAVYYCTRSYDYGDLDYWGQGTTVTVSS
Solution: 128
